# test.details: Study #1 Phase 1: plasma and urine pharmacokinetics of Compound 1 and Compound 1A after IV infusion of Compound 1 (SAD, MAD, loading regimen)
# measurement.context: both, human, plasma, 300 mg, Cmax, Cohort 9: Compound 1 300 mg/3 hr IV QD × 14 days, Day 1, geometric mean

molecule	unit.abbreviation	Cmax
Nc1ncccc1-c1cc(Cc2ccc(COc3ccccn3)cc2)no1 [Compound 1A]	ng/mL	3690

----------
# test.details: Study #2 Phase 1: pharmacokinetics after single IV and single/multiple oral doses of Compound 1, absolute oral bioavailability
# measurement.context: human, plasma, po, 300 mg, Tmax, 300 mg Oral Compound 1, fasted, median

compound	unit.abbreviation	Tmax
Nc1ncccc1-c1cc(Cc2ccc(COc3ccccn3)cc2)no1 [Compound 1A]	h	2.5

----------
# test.details: Study #2 Phase 1: pharmacokinetics after single IV and single/multiple oral doses of Compound 1, absolute oral bioavailability
# measurement.context: human, plasma, iv, 200 mg, AUC(0-24), 200 mg/3 hr IV Compound 1, fasted, geometric mean

compound	unit.abbreviation	AUC(0-t)
Nc1ncccc1-c1cc(Cc2ccc(COc3ccccn3)cc2)no1 [Compound 1A]	ng·h/mL	24400

----------
# test.details: Study #1 Phase 1: plasma and urine pharmacokinetics of Compound 1 and Compound 1A after IV infusion of Compound 1 (SAD, MAD, loading regimen)
# measurement.context: both, human, plasma, 600 mg, AUC(0-24), Cohort 12 loading regimen: Compound 1 600 mg/1 hr IV QD, Day 7, geometric mean
value.type: AUC(0-t) (µg·h/mL)

mol.smiles	unit.abbreviation	recorded.number
Nc1ncccc1-c1cc(Cc2ccc(COc3ccccn3)cc2)no1	µg·h/mL	201

----------
# test.details: Study #1 Phase 1: plasma and urine pharmacokinetics of Compound 1 and Compound 1A after IV infusion of Compound 1 (SAD, MAD, loading regimen)
# measurement.context: both, human, plasma, 30 mg, AUC(0-24), Cohort 2: Compound 1 30 mg/3 hr IV, single dose, geometric mean [geometric %CV]

mol.smiles	AUC(0-t) (ng·h/mL)
Nc1ncccc1-c1cc(Cc2ccc(COc3ccccn3)cc2)no1	4320

----------
# test.details: clinical
# measurement.context: human, plasma, po, 100 mg

mol.smiles	CL/F (mL/min/kg)
Nc1ncccc1-c1cc(Cc2ccc(COc3ccccn3)cc2)no1	0.417

----------
# test.details: Study #2 Phase 1: pharmacokinetics after single IV and single/multiple oral doses of Compound 1, absolute oral bioavailability
# measurement.context: human, plasma, po, 500 mg, Tmax, Day 1, Cohort 4, 500 mg Oral Solution QD × 14 Days, fed, median

compound	Tmax
Nc1ncccc1-c1cc(Cc2ccc(COc3ccccn3)cc2)no1 [Compound 1A]	2 h

----------
# test.details: Study #2 Phase 1: pharmacokinetics after single IV and single/multiple oral doses of Compound 1, absolute oral bioavailability
# measurement.context: human, plasma, oral, 500 mg, Cmax, Day 14, Cohort 2, 500 mg Tablets QD × 14 Days, fed, geometric mean

mol.smiles	Cmax / ng/mL
Nc1ncccc1-c1cc(Cc2ccc(COc3ccccn3)cc2)no1	12000

----------
# test.details: Study #2 Phase 1: pharmacokinetics after single IV and single/multiple oral doses of Compound 1, absolute oral bioavailability;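 further: phase 1 study design: one IV dose, then escalating single oral doses, fed versus fasted single oral dosing, and once-daily oral dosing over 14 days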
# measurement.context: human, plasma, oral, 1000 mg, Tmax, Day 7, Cohort 3, 1000 mg Tablets QD × 14 Days, fed, median
value.type: Tmax (h)

mol.smiles	value.type	unit.abbreviation	recorded.number
Nc1ncccc1-c1cc(Cc2ccc(COc3ccccn3)cc2)no1	Tmax	h	4
